From: patent US20100260765A1

We begin with a simple list: items and their reported ELISA reading.
# TARGET_OR_TEST_SYSTEM: T1, soluble KDR extracellular domain (ECD) (Calbiochem) (human, UniProt P35968 20-764)
# T1 construct: extracellular domain; Bought protein; also called KDR-ECD; VEGF Receptor 2 D1-7, Cat. #676490
# T1 sequence (P35968 20-764): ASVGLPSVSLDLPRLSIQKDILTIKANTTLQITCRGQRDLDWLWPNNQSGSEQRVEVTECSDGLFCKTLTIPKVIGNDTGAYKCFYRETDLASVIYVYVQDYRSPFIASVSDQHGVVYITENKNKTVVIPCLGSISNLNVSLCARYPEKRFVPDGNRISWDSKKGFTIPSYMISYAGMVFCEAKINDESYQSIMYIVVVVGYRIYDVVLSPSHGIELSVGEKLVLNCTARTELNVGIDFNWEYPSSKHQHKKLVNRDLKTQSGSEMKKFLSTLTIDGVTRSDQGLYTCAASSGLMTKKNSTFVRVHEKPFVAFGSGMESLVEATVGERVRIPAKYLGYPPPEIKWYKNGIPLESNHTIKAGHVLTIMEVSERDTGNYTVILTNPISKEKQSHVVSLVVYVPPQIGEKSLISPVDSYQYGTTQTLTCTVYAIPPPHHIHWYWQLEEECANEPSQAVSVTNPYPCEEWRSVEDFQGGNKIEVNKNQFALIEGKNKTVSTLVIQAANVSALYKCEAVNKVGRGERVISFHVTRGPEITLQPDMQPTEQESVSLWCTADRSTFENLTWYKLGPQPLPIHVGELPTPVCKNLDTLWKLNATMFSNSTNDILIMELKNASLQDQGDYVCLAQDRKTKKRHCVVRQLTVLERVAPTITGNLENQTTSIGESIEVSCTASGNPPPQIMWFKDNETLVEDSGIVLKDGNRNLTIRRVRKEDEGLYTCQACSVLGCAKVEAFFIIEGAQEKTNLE
# MEASUREMENT_NOTES: Limited Antigen ELISA, KDR coat 6.25 ng/mL, supernatant 1:25
Please give only the number in your answer, with no unit.

Entry under review: 29A3 (antibody, V domains shown, Fully human mAb from XenoMouse hybridoma, tested as hybridoma supernatant) VH: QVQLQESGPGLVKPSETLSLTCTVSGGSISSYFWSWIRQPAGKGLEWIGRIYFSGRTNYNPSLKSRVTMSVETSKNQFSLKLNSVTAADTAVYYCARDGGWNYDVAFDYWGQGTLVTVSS VL: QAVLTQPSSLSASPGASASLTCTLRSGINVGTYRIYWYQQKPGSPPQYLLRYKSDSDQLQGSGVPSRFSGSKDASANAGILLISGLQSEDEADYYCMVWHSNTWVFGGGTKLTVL . Reported ELISA reading? 0.27

More entries:
Could you share which ELISA reading value was measured for 30A1 (antibody, V domains shown, Fully human mAb from XenoMouse hybridoma, tested as hybridoma supernatant) VH: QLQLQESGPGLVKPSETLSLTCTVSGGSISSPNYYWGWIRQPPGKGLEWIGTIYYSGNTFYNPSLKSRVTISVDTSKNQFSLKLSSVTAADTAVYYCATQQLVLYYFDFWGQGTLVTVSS VL: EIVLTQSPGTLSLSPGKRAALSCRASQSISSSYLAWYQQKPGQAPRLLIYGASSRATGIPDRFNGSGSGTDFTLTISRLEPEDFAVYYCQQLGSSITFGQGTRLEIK ? 0.27

GET /values?readout=ELISA reading&item= 21H6 (antibody, V domains shown, Fully human mAb from XenoMouse hybridoma, tested as hybridoma supernatant) VH: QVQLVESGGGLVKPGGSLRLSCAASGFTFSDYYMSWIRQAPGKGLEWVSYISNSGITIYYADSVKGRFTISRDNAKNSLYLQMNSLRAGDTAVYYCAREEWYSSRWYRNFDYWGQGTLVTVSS VL: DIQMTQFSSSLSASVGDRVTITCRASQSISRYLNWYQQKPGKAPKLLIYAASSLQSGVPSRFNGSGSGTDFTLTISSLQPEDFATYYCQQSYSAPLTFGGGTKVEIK 0.23

Endpoint output: ELISA reading of 31E11 (antibody, V domains shown, Fully human mAb from XenoMouse hybridoma, tested as hybridoma supernatant) VH: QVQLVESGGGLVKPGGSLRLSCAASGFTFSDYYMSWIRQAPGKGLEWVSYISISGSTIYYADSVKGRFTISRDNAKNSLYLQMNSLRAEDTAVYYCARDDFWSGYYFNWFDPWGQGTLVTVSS VL: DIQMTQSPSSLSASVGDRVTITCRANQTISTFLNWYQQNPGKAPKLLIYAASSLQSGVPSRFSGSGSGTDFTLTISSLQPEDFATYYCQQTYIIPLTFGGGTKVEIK . Value? 0.39

ELISA reading lookup needed for 33D5 (antibody, V domains shown, Fully human mAb from XenoMouse hybridoma, tested as hybridoma supernatant) VH: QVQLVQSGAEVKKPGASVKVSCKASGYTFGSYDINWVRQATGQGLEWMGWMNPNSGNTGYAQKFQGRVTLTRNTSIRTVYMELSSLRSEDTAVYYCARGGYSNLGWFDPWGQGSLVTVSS VL: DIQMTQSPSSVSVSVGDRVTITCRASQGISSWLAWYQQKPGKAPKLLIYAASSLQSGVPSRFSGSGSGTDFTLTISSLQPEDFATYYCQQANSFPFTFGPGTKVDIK , thanks. 0.61

Given the entry 24C9 (antibody, V domains shown, Fully human mAb from XenoMouse hybridoma, tested as hybridoma supernatant) VH: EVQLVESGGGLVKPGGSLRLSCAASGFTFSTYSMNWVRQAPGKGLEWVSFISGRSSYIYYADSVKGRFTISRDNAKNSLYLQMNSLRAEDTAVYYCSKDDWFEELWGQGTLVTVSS VL: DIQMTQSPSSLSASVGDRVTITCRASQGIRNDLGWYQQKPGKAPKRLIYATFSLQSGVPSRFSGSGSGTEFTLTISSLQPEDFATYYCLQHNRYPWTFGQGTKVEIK , report its measured ELISA reading. 0.09

Which ELISA reading is reported for this binder? 33C3 (antibody, V domains shown, Fully human mAb from XenoMouse hybridoma, tested as hybridoma supernatant) VH: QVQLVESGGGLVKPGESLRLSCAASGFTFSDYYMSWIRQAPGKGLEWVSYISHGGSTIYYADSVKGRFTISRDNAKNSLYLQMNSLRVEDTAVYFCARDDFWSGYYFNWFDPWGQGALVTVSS VL: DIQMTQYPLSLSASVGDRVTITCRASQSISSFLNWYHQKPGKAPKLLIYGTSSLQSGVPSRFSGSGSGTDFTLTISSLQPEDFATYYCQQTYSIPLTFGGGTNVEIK 0.37

# ELISA reading lookup, item 29H3 (antibody, V domains shown, Fully human mAb from XenoMouse hybridoma, tested as hybridoma supernatant) VH: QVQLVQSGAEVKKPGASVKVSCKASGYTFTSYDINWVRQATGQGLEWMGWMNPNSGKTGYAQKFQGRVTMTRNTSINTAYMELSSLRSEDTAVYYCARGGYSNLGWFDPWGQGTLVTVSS VL: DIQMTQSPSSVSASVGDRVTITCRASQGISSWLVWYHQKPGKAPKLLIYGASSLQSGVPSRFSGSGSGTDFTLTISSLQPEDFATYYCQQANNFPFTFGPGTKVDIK 0.24

Look up ELISA reading: 33E1 (antibody, V domains shown, Fully human mAb from XenoMouse hybridoma, tested as hybridoma supernatant) VH: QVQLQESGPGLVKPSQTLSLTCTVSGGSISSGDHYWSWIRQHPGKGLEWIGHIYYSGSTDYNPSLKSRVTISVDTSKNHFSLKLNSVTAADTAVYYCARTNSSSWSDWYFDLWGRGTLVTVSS VL: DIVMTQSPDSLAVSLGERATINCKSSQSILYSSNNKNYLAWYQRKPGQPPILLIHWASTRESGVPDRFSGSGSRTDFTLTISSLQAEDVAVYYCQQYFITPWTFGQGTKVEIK 0.11

Tell me the measured ELISA reading of 32F4 (antibody, V domains shown, Fully human mAb from XenoMouse hybridoma, tested as hybridoma supernatant) VH: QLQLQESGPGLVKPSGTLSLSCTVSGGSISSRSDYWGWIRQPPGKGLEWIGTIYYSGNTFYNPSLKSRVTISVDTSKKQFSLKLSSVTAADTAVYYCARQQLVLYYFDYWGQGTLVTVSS VL: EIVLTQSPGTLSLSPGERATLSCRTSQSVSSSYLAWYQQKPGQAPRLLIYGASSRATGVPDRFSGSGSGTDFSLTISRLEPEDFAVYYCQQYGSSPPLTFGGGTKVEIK , please. 0.36
